- method notes: recombinant UMI read abundance after kanamycin selection (control-corrected) (log10(CPM+1)); higher = more efficient recombination; extreme values may be limits of the assay; sequences stand for … in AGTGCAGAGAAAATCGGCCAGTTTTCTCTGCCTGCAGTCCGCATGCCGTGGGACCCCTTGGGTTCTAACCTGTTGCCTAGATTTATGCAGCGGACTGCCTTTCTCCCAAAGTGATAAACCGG…AGGTTGGTTTCACT; site = the 11-nt donor;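 further: IS621 bridge recombinase in Escherichia coli cells against a fixed T5 target plasmid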
Please mark label 1 if the recorded recombinant UMI read abundance (log10) is equal to or greater than 0.3, and label 0 if it falls below.

Here's what some known entries look like.
biosequence	assigned label
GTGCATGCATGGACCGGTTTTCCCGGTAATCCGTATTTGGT (site GTGCACGCTAC)	label 1
TGTACACCATGGACCGGTTTTCCCGGTAATCCGTATTTGAG (site TGTACACCTTT)	label 0
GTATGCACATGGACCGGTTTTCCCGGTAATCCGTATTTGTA (site GTATGCACTGA)	label 1
GAACACCCATGGACCGGTTTTCCCGGTAATCCGTATTTGGA (site GAACACCCTTC)	label 0
CCTTAGCCATGGACCGGTTTTCCCGGTAATCCGTATTTGCC (site CCCTAGCCTGG)	label 0

Query string: Reported recombinant UMI read abundance (log10) reaches at least 0.3 for TCGTGATCATGGACCGGTTTTCCCGGTAATCCGTATTTGGC (site TCGTGATCTGC) ?
Result string: label 0

Query string: Reported recombinant UMI read abundance (log10) reaches at least 0.3 for TCCAATTCATGGACCGGTTTTCCCGGTAATCCGTATTTGTC (site TCCAATTCTGT) ?
Result string: label 0

Query string: Reported recombinant UMI read abundance (log10) reaches at least 0.3 for CGGCTACCATGGACCGGTTTTCCCGGTAATCCGTATTTGCT (site CTGCTACCTAG) ?
Result string: label 0

// data source = the supplement of paper PMC11208160
